# test-summary: yeast display, Sf9 membrane polyspecificity reagent, FACS + sequencing; frameworks hold sequencing errors

residues	polyreactivity (PSR sort gate)
QVQLVESGGGLVQAVGSLRLSCAASGSILASNAMGWYRQAPGKERELVAAITTSGGSTYYADSVKGRFTISRDNAKNTVYLQMNSLKPEDTAVYYCNAEYWLGRWLRYGYWGQGTQVTVSS	high polyreactivity
QVQLVESGGGLVQAGGRLRLSCAASGGTFYYYAMGWYRQAPGKERELVAAIRRRGGGTYSADSVKGRFTISRDNAKNTVYLQMNSLKPEDTAVYYCARDKLRSWWGDYNTYYPDDSWGQGTQVTVSS	high polyreactivity
QVQLVESGGGLVQAGGSLRLSCAASGFIFATYGMGWYRQAPGKERELVATITSGGRTYYADSVKGRFTISRDNAKNTVYLQMNSLKPDDTAVYYCARASRRYWSMDYWGQGTQVSVSS	high polyreactivity
